IC50: recorded values
Target: JAK2 (Homo sapiens)
Construct: endogenous in cells
Sequence (O60674 whole entry): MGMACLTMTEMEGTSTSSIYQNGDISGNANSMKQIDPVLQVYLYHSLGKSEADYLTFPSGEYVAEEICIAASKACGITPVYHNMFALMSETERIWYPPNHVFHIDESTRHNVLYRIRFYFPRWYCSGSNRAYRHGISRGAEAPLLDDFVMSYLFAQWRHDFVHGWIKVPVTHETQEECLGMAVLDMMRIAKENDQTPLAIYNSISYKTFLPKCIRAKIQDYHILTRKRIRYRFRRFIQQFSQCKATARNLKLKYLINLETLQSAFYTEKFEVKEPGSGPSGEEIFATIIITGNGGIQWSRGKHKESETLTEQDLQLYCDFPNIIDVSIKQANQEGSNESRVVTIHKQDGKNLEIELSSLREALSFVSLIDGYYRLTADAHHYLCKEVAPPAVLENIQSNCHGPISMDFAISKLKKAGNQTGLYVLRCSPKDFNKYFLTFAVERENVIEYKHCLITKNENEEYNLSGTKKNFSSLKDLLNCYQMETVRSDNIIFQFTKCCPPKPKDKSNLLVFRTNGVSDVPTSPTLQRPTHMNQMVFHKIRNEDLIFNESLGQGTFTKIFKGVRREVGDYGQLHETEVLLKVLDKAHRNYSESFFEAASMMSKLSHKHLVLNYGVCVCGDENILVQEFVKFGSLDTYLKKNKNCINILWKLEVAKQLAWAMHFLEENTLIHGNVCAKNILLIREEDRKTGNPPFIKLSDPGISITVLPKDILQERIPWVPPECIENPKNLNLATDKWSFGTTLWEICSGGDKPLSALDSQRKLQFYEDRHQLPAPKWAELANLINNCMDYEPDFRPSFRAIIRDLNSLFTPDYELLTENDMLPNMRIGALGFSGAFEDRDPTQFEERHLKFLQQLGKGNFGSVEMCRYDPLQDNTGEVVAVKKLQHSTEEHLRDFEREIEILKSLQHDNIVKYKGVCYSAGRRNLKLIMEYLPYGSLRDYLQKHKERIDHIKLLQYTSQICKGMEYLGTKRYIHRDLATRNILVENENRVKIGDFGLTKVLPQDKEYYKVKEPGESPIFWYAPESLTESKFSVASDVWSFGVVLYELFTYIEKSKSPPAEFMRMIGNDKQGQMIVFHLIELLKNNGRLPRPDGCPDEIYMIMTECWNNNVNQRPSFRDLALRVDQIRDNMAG
Assay: kinobeads assay (competition with affinity matrix in mixed Molt4/Ramos cell lysate, dot blot detection), JAK2
Conditions: activity level

# annotated cases, reported IC50 shown
CNC(=O)c1ccc(F)c(Nc2ncc(Cl)c(Nc3cc(F)c(F)cc3NS(C)(=O)=O)n2)c1 = 1 to 10 µM
CCN(CC)C(=O)c1ccc(F)c(Nc2ncc(Cl)c(Nc3ccccc3NS(=O)(=O)CC)n2)c1 = > 10 µM
CCNC(=O)c1ccc(Nc2ncc(Cl)c(Nc3cccc(F)c3NS(C)(=O)=O)n2)c(F)c1 = > 10 µM
CCNC(=O)c1ccc(F)c(Nc2ncc(Cl)c(Nc3ccccc3NS(C)(=O)=O)n2)c1 = 0.1 to 1 µM

// moving on: another record for IC50
Record request: IC50 value, item `CS(=O)(=O)Nc1ccccc1Nc1nc(Nc2cc(F)c(C(=O)NC3CC3)cc2F)ncc1Cl` > 10 µM

This collection of values is drawn from patent US20120040955A1.
